assay: Solubility; assay type: physicochemical; details: organic solvent or mixture; 25° C., DMSO; read-out: solubility in DMSO (saturated)
parameter measured: solubility (mM)
One number for each entry, in mM.

Query string: I would be grateful if you could share the reported solubility for `Nc1ccc2oc(=O)ccc2c1I` .
Result string: 1900

###

assay: Stability in solution; assay type: physicochemical; details: water; kept in the dark, months at room temperature; read-out: decomposition in aqueous solution
parameter measured: degraded

Query string: What does the record list as degraded for `Nc1ccc2oc(=O)ccc2c1I` ?
Result string: < 0.1%

###

assay: Solubility; type: physicochemical; conditions: 25° C., water; read-out: solubility in water (saturated)
parameter measured: solubility (µM)
Give bare numbers, in µM.

Query string: Entry under review: `Nc1ccc2oc(=O)ccc2c1I` . Reported solubility?
Result string: 370
